Biological target: cynomolgus monkey (cyno) TIGIT protein (cynomolgus monkey, UniProt A0A7N9I9V4 89-209)
Sequence (A0A7N9I9V4 entry or part of it): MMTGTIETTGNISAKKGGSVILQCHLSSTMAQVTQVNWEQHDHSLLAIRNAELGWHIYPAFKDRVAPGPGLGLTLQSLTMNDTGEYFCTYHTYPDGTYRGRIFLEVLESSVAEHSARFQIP
Assay: SPR, captured mAb
Quick reference: koff of the listed items.
Express it in s⁻¹; write the number only.

Request: Need koff, item h7E7.L1H4 (antibody, V domains shown, VH: A67V against h7E7.L1H1; FR/HVR pieces) VH: EVQLVQSGAEVKKPGASVKVSCKASGYTFTEYSIYWVRQAPGQRLEIIGRIDPKNGRTYYVDKFKNRVTLTADTSASTAYMELSSLRSEDTAVYFCTRIYGFYFDFWGQGTLVTVSS VL: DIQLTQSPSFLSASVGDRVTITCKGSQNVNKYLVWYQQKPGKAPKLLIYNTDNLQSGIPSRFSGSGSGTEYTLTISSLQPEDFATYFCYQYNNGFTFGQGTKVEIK
Response: 0.000243

Moving on to another binder below.
Request: Need koff, item h6B2.L2H5 (antibody, V domains shown, Fully humanized version; FR/HVR pieces in order) VH: EVTLKESGPALVKPTQTLTLTCTFSGFSLSTYGMGVSWIRQPPGKALEWLASIWWNGNTYYNPSLKSRLTITKDTSKNQVVLTMTNMDPVDTATYYCAHTGGAVITWFAYWGQGTLVTVSS VL: DIQMTQSPSSLSASVGDRVTITCKASQSVGKNIAWYQQKPGKAPKLLIYYASNRYTGVPSRFSGSGSGTDFTFTISSLQPEDIATYYCQHIYNSPYPFGQGTKVEIK
Response: 0.00124

From: patent US20220064286A1
